Recorded melting point by entry

1) Cc1nnc2n1-c1sc(Cl)cc1C(c1ccccc1C(F)(F)F)=NC2 :: 193 to 195 °C

Problem: Look up melting point: `CC(=O)Nc1nsc2ccc(NS(=O)(=O)c3cc(Cl)ccc3Cl)cc12`
Solution: 169 to 172 °C

Problem: Look up melting point: FC(F)(F)c1ccc(C2=NN(C(=S)Nc3ccc(Cl)cc3)CC2c2ccccc2)cc1 (stereo not given)
Solution: 208 to 210 °C

Problem: Look up melting point: c1ccc(C2CC(n3cncn3)c3ccccc3N2)cc1 (stereo not given)
Solution: 162 to 164 °C

Problem: Look up melting point: `COc1ccc(C(=O)Nc2ccc(C(C)(C)CNC(=O)c3nc4ccc(F)cc4[nH]3)cc2)cc1OC`
Solution: 222 to 224 °C

Problem: Look up melting point: `C=Cc1c(NC(C)=O)cc(-c2ccc(Cl)c(OC)c2F)nc1C(=O)OC`
Solution: 143 to 145 °C

Problem: Look up melting point: `COc1cccc(C#N)c1C`
Solution: 47 to 48 °C

Problem: Look up melting point: CN(C(=O)c1cc(C(F)(F)F)cc(C(F)(F)F)c1)C(CC(=O)O)Cc1ccc2ccccc2c1 (stereo not given)
Solution: 128 to 130 °C

Problem: Look up melting point: `CCOc1ccc(Nc2cccc3ccccc23)cc1`
Solution: 73 to 75 °C

Problem: Look up melting point: `CN(C)c1nc(Br)cnc1N`
Solution: 145 °C
